tgt: human CD33 T232A (human, UniProt P20138 18-364)
Sequence (P20138 18-364 T232A limits assumed): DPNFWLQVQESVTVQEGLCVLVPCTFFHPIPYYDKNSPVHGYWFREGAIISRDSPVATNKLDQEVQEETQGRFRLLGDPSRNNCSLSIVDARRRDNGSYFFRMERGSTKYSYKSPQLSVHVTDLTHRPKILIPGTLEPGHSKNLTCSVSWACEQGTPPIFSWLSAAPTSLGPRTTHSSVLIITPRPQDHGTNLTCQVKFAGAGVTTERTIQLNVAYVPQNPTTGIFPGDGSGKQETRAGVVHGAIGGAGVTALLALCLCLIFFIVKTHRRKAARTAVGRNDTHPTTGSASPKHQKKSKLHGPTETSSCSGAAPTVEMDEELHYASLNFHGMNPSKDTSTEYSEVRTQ
assay-name: alanine scan, flow cytometry, HEK293-T;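 further: antibody binding to each alanine-substituted CD33 mutant expressed transiently in HEK293-T, read as fluorescence minus background, mean of duplicates, relative to wild-type CD33 set as 100%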
result-type: Mean % WT Binding

[
  {
    "binder": "Refmab #4 (antibody, V domains shown, In the alanine scan antibodies were used as IgG or Fab) VH: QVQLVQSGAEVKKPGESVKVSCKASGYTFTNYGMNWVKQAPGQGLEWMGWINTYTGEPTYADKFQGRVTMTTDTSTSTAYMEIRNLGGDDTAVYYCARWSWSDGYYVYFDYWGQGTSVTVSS VL: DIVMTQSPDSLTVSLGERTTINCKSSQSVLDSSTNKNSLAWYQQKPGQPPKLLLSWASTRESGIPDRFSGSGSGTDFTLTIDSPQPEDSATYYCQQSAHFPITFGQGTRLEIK",
    "result": "57.4%"
  },
  {
    "binder": "Refmab #3 (antibody, V domains shown, In the alanine scan antibodies were used as IgG or Fab) VH: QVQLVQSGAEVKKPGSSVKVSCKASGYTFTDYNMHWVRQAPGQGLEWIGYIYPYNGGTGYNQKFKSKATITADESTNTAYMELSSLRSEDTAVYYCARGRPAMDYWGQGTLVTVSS VL: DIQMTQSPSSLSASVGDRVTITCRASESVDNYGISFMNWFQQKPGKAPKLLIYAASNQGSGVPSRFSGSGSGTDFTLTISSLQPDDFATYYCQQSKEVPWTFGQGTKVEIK",
    "result": "127%"
  },
  {
    "binder": "Refmab #2 (antibody, V domains shown, In the alanine scan antibodies were used as IgG or Fab) VH: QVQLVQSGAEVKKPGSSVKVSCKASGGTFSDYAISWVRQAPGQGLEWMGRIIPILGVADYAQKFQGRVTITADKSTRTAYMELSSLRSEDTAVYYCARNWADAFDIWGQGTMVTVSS VL: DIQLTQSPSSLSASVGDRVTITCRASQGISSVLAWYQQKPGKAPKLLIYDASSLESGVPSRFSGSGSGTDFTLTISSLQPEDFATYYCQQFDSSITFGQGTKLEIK",
    "result": "84.8%"
  },
  {
    "binder": "Refmab #1 (antibody, V domains shown, In the alanine scan antibodies were used as IgG or Fab; also called hP67.6) VH: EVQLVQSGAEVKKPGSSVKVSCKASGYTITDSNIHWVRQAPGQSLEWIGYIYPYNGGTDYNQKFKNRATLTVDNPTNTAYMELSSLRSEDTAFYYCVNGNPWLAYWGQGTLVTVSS VL: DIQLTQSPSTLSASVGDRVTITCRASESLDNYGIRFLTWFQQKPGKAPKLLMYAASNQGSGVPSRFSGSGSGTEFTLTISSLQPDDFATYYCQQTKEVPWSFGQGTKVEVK",
    "result": "76.6%"
  }
]
